Target: T1, S. cerevisiae Pcf11 CID1-144 (S. cerevisiae, UniProt P39081 1-144)
T1 chain: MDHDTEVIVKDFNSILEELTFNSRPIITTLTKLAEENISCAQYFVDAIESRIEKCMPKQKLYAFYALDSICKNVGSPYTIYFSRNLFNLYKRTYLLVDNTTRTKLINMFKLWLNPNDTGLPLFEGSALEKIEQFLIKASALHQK
Test: FP
No end group written: not given here. FAM = 5'-fluorescein amidite
measured_attribute: pKd
# pKd = -log10(concentration in molar units)

Q. Which pKd is listed for {FAM}-YSPTSPSYSPTSPS (also: phospho-Ser2 of heptad, which repeat not given here) [FAM-labeled two-repeat CTD peptide, Ser2P] ?
A. 3.90
